target: T1, MusROR1-His (mouse ROR1 ECD AA30-406 with C-terminal His tag) (mouse, UniProt Q9Z139 30-406); assay: ELISA, MusROR1-His coated at 2 µg/mL, goat anti-human Fc-HRP, OD450
T1 construct: range 30-406; Expressed in HEK293; also called mouse ROR1 antigen protein; not shown: C-terminal His tag
T1 sequence (Q9Z139 30-406 limits assumed): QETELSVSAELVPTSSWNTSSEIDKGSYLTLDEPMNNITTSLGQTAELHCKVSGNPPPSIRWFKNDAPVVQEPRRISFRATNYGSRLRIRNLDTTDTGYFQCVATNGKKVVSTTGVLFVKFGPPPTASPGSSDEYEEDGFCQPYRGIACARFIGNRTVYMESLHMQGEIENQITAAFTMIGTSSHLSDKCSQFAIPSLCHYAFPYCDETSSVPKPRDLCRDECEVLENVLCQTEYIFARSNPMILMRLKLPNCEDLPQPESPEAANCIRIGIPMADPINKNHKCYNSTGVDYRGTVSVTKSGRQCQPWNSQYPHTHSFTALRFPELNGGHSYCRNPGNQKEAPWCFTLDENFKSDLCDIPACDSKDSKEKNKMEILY
Recorded metric: binding result

- Binder: "C42 (chimeric antibody) (antibody, human IgG1, kappa, V domains shown, ExpiCHO expression) VH: EVMLVESGGGLVKPGGSLKLSCAASGFTFSNYIMSWVRQTPEKRLEWVATINSGGTNTYYPDSVKGRFTISRDNAKNSLYLQMNSLRSEDTALYYCTRYNGNYVWFAYWGQGTLVTVSA VL: DIVLTQSPAIMSASPGEKVTMTCSASSSVSFIYWYQQKPGSSPRLLIYDTSNLASGVPVRFSGSGSGTSYSLTISRMEAEDAATYYCQQWSNYHFTFGSGTKLEIKR"
  Recorded metric: "binding result"
  Recorded result: "binds"
